Reported mass density is given for each of the following compounds.
Conditions: 288.15 K; 101.33 kPa; Liquid; Vibrating tube method
readoutType: mass density (kg/m3)

compound: CC(=O)[O-].CCn1cc[n+](C)c1 [1-ethyl-3-methylimidazolium acetate]
unitName: kg/m3
experimentalValue: 1105.6
//
compound: CCn1cc[n+](C)c1.N#CN=C=[N-] [1-ethyl-3-methylimidazolium dicyanamide]
unitName: kg/m3
experimentalValue: 1110.9
//
compound: CCn1cc[n+](C)c1.O=S(=O)([O-])C(F)(F)F [1-ethyl-3-methylimidazolium trifluoromethanesulfonate]
unitName: kg/m3
experimentalValue: 1394.5
//
compound: CCn1cc[n+](C)c1.N#C[S-] [1-ethyl-3-methylimidazolium thiocyanate]
unitName: kg/m3
experimentalValue: 1123.3
//
compound: CCn1cc[n+](C)c1.CO[PH](=O)[O-] [1-ethyl-3-methylimidazolium methyl phosphonate]
unitName: kg/m3
experimentalValue: 1215.1
//
compound: CCn1cc[n+](C)c1.CS(=O)(=O)[O-] [1-ethyl-3-methylimidazolium methanesulfonate]
unitName: kg/m3
experimentalValue: 1249.5
